biological target: Bcl-2 protein (Recombinant Human Bcl-2 Protein) (Homo sapiens); construct: purchased Novus NBP2-34889; test: Binding evaluation of mixture library compounds to Bcl-2 using AS-MS (affinity selection mass spectrometry); conditions: AS-MS, mixture library, Bcl-2; replicate n = 2; ASMS Ratio(%)=(A−C)/B×100
measurement_type: ASMS ratio (%) n = 2

>  <molecule>
CCOc1cncc(-c2ccccc2CCC(=O)N2CCN(c3ccc(C(=O)NS(=O)(=O)CC45CC6CC(CC(C6)C4)C5)cc3)CC2)c1 [B2A034-01]

>  <ASMS ratio (%) n = 2>
0.3

$$$$

[a] CCOc1cncc(-c2cc(OC)c(CN3CCN(c4ccc(C(=O)NS(=O)(=O)c5ccc(NCCSc6ccccc6)c([N+](=O)[O-])c5)cc4)CC3)c(OC)c2)c1 [B2Q060-01]
[b] CCOc1cccc(-c2cnn(-c3cc(C(=O)N4CCN(c5ccc(C(=O)NS(=O)(=O)c6ccc(NCCSc7ccccc7)c([N+](=O)[O-])c6)cc5)CC4)cc(C(F)(F)F)c3)c2)c1 [B2Q043-01]
Input line: Short answer wanted: higher ASMS ratio (%) n = 2, a or b ? Give the label under which the chosen entry appears.
Output line: a

---

biological target: Bcl-2 protein (Recombinant Human Bcl-2 Protein) (Homo sapiens, UniProt P10415); construct: purchased Novus NBP2-34889; assay: Binding evaluation of mixture library compounds to Bcl-2 using AS-MS (affinity selection mass spectrometry); conditions: AS-MS, mixture of 1200 compounds, Bcl-2; ASMS Ratio(%)=(A−C)/B×100; replicate n = 1
Sequence (P10415 whole entry): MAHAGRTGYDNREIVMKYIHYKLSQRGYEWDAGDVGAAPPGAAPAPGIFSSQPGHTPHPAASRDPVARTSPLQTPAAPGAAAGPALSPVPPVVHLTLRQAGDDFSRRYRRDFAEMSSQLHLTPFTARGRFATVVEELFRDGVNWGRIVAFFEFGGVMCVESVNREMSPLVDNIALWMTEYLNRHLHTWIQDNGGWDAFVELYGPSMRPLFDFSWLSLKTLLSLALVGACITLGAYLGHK
measurement_type: ASMS ratio (%) n = 1

Record excerpt, results attached:
>  <smiles_notation>
CCOc1cncc(-c2ccccc2CN2CCN(c3ccc(C(=O)NCC(F)(F)F)nn3)CC2)c1

>  <assayed_target>
Bcl-2 protein (Recombinant Human Bcl-2 Protein) (Homo sapiens, UniProt P10415)

>  <u>
%

>  <val>
−0.6

$$$$
>  <smiles_notation>
CCOc1cccc(C#Cc2ccccc2CN2CCN(c3ccc(C(=O)NCC45CC6CC(CC(C6)C4)C5)nn3)CC2)c1

>  <assayed_target>
Bcl-2 protein (Recombinant Human Bcl-2 Protein) (Homo sapiens, UniProt P10415)

>  <u>
%

>  <val>
0.3

$$$$
>  <smiles_notation>
CCCNC(=O)c1ccc(N2CCN(Cc3ccc(-c4cncc(OCC)c4)cc3CC)CC2)nn1

>  <assayed_target>
Bcl-2 protein (Recombinant Human Bcl-2 Protein) (Homo sapiens, UniProt P10415)

>  <u>
%

>  <val>
0.5

$$$$
>  <smiles_notation>
CCOc1cncc(C#Cc2cncc(C(=O)N3CCN(c4ccc(C(=O)NCC(F)(F)F)nn4)CC3)c2)c1

>  <assayed_target>
Bcl-2 protein (Recombinant Human Bcl-2 Protein) (Homo sapiens, UniProt P10415)

>  <u>
%

>  <val>
0.0

$$$$
>  <smiles_notation>
CCOc1cncc(-c2ccc(CN3CCN(c4ccc(C(=O)NCC(F)(F)F)cc4)CC3)cc2F)c1

>  <assayed_target>
Bcl-2 protein (Recombinant Human Bcl-2 Protein) (Homo sapiens, UniProt P10415)

>  <u>
%

>  <val>
−3.3

$$$$

[I] CCCNC(=O)c1ccc(N2CCN(Cc3ccc(-c4cncc(OCC)c4)cc3CC)CC2)cc1
[II] CCOc1cncc(-c2cc(CN3CCN(c4ccc(C(=O)NCC(F)(F)F)nn4)CC3)cc(OC(F)(F)F)c2)c1
Input line: Select one. Lower ASMS ratio (%) n = 1: I or II Give the label under which the chosen entry appears.
Output line: II

[1] CCOc1cncc(C#Cc2ccccc2CN2CCN(c3ccc(C(=O)NCC45CC6CC(CC(C6)C4)C5)nn3)CC2)c1
[2] CCOc1cccc(-c2ccc(CN3CCN(c4ccc(C(=O)NCC56CC7CC(CC(C7)C5)C6)cc4)CC3)cc2F)c1
Input line: Select one. Lower ASMS ratio (%) n = 1: 1 or 2 Give the label under which the chosen entry appears.
Output line: 2
(2: −5.4%, 1: 0.0%)

[a] CCOc1cncc(-c2ccc(CN3CCN(c4ccc(C(=O)NCC56CC7CC(CC(C7)C5)C6)cc4)CC3)cc2C)c1
[b] CCOc1cccc(-c2ccc(C(=O)N3CCN(c4ccc(C(=O)NCC56CC7CC(CC(C7)C5)C6)nn4)CC3)cc2F)c1
Input line: Select one. Lower ASMS ratio (%) n = 1: a or b Give the label under which the chosen entry appears.
Output line: a
